assay details: self-splicing fitness, log relative to wild type (ln ratio); higher = more splicing; Tetrahymena group I intron in knt gene, E. coli kanamycin selection, DiMSum; sequences stand for … in CUCUCU…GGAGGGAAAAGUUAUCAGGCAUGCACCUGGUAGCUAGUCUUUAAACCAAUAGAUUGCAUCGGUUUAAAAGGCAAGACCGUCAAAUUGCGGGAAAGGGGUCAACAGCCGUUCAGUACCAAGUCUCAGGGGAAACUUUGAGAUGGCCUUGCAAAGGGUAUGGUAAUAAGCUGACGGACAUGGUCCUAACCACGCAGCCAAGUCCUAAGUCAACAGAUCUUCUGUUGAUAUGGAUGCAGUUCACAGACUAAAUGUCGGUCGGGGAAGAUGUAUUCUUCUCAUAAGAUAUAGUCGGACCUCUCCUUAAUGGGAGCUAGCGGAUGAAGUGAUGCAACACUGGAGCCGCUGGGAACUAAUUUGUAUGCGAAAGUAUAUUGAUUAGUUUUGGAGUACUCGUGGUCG;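 further: selection with 25 µg/mL kanamycin versus none on LB agar overnight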
setup conditions: 30 °C
Reported self-splicing fitness (ln) values for the following sequences.
Answer with a bare number; do not write a unit.

The cases that follow already have their self-splicing fitness (ln) on record.
UGGCAGCAAUAUUACGGUGG ... -0.928
UGGCAGCAAUAUUACGGUGA ... -0.428
GCGUAGCAAUAUUACGAACA ... -0.46

Input line: Entry under review: `ACGAAGCAAUAUUACGACUC` . Reported self-splicing fitness (ln)?
Output line: -1.12

Input line: Entry under review: `AUCCAGCAAUAUUACGAUCG` . Reported self-splicing fitness (ln)?
Output line: -2.6

Input line: Entry under review: `ACACAGCAAUAUUACGCAUG` . Reported self-splicing fitness (ln)?
Output line: -1.04

Input line: Entry under review: `GCCUAGCAAUAUUACGAUAA` . Reported self-splicing fitness (ln)?
Output line: -2.08

Input line: Entry under review: `GGGAAGCAAUAUUACGCAAG` . Reported self-splicing fitness (ln)?
Output line: -2.81

----------
assay details: self-splicing fitness, log relative to wild type (ln ratio); higher = more splicing; Tetrahymena group I intron in knt gene, E. coli kanamycin selection, DiMSum; sequences stand for … in CUCUCU…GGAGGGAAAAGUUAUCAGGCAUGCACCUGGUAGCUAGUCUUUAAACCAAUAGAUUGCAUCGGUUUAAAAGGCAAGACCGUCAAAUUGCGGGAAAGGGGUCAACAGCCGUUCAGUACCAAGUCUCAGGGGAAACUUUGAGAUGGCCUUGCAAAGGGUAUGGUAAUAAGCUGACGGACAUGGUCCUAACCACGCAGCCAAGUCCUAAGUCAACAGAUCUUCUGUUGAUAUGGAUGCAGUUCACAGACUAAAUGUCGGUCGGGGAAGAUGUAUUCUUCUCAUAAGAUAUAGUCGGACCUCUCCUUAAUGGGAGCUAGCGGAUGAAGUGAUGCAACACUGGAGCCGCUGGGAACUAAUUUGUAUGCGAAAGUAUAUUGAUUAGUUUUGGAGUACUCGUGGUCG
setup conditions: 30 °C
readout: self-splicing fitness (ln)
Answer with a bare number; do not write a unit.

The cases that follow already have their self-splicing fitness (ln) on record.
GGCUAGCAAUAUUACGAGGG ... -2.39
GGAUAGCAAUAUUACGGGAU ... -3.03
ACUCAGCAAUAUUACGUCCA ... -0.69

Input line: Entry under review: `UUGUAGCAAUAUUACGUACA` . Reported self-splicing fitness (ln)?
Output line: -1.51

Input line: Entry under review: `CCGUAGCAAUAUUACGAACA` . Reported self-splicing fitness (ln)?
Output line: -2.12

Input line: Entry under review: `UUAUAGCAAUAUUACGAUCU` . Reported self-splicing fitness (ln)?
Output line: -1.74

Input line: Entry under review: `ACCAAGCAAUAUUACGCGCG` . Reported self-splicing fitness (ln)?
Output line: -1.5

Input line: Entry under review: `UAUCAGCAAUAUUACGCCCC` . Reported self-splicing fitness (ln)?
Output line: 1
